Target: SOS1 (Homo sapiens, UniProt Q07889)
Sequence (Q07889 1-1333): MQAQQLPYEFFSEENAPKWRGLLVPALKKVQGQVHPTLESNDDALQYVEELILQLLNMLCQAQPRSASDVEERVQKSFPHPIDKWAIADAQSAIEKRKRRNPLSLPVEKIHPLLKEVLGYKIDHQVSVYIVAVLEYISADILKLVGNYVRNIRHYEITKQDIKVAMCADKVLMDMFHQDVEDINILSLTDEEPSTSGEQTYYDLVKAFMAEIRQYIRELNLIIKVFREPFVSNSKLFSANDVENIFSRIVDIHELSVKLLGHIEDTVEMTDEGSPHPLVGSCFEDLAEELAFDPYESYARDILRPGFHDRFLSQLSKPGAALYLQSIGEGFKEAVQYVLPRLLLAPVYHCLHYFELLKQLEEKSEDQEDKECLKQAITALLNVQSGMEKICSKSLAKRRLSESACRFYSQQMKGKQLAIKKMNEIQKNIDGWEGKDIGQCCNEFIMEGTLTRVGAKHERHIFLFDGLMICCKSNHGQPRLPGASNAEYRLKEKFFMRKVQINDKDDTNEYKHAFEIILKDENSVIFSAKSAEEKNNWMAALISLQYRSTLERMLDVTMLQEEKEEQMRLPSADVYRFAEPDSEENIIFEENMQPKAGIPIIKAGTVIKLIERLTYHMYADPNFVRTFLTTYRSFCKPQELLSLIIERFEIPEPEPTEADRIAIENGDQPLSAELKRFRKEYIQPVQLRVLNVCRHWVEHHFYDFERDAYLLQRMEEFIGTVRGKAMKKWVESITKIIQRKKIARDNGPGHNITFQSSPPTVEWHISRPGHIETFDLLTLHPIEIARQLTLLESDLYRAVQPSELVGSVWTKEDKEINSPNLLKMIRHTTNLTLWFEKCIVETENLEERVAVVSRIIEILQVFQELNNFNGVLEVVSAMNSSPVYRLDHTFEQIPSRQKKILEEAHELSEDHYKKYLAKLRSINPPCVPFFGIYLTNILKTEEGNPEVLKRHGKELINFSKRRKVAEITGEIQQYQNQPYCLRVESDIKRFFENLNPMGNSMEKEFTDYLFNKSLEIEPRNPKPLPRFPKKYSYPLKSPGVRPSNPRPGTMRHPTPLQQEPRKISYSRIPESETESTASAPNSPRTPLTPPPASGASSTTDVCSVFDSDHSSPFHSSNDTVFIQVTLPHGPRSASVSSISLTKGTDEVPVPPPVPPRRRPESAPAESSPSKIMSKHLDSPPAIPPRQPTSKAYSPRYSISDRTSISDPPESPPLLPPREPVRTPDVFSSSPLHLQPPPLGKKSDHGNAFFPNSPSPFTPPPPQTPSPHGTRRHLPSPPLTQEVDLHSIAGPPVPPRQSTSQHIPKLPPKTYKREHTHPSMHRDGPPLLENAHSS
Measurement Name: pIC50
Quick note: pIC50 values are minus log10 of concentrations in mol/L.

C[C@@H](Nc1nnc(N2CCN(C)CC2)c2cc(=O)n(C3CCN(C)CC3)cc12)c1cccc(C(F)F)c1F
8.27
Cc1c([C@@H](C)Nc2nnc(N3CCC3)c3cc(=O)n(C4CC4)cc23)cccc1C(F)(F)F.O=CO [Example 50, formate]
8.24
Cc1c([C@@H](C)Nc2nnc(N3CCN(C)CC3)c3cc(=O)n(C4(C)CC4)cc23)cccc1S(=O)(=O)C(F)F
8.36
C[C@@H](Nc1nnc(N2CC3CCCC3C2)c2cc(=O)n(C3(C)CC3)cc12)c1cccc(C(F)F)c1F (stereo partly shown)
8.51

Task item: State the recorded pIC50 for this entry: CCN(CC)c1nnc(N[C@H](C)c2cccc(C(F)(F)F)c2C)c2cn(C3(C)CC3)c(=O)cc12
Reply: 7.68

Task item: Next record, please: Cc1c([C@@H](C)Nc2nnc(N3CCN(C)CC3)c3cc(=O)n(C4(C)CC4)cc23)cccc1C(F)(F)F
Reply: 8.20

Task item: Next record, please: C[C@@H](Nc1nnc(N2CCC3(C2)CS(=O)(=O)C3)c2cc(=O)n(C3(C)CC3)cc12)c1cccc(C(F)F)c1F
Reply: 8.30
